tested on: FXR:RXRa (NR concentration 270 nM, RXRa partner concentration 90 nM); experiment: PBM binding z-score (relative to random genomic background probes); higher = stronger binding; sequences stand for … in GC…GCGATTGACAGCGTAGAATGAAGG
So basically every entry gets a class from its PBM binding z-score, ranges being low band (below 0.3), middle band (0.3 to below 1), high band (1 or more)

# chain, class_assignment
records = [
    ("GCGACTGGGGCATCAGCAGGTTACCATAACTTAA", "low band"),
]

Band for the recorded PBM binding z-score of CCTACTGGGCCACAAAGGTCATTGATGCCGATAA ?
high band

Given GCTGCTAGGTCAGGTTGGTCAGCAAACGGGTACG , name the class its PBM binding z-score places it in.
high band

// return the class label for CCTAGTTGGTCAGCAGGTCACACACCGGATATGA
high band

Which band does CCGACTGGGGCTAGGTTACCATAACGCACAGCCA fall in?
low band

Which PBM binding z-score category applies to GCTGCTACGTCAACTGATGGTCAGCTAAAGCTCG here?
low band

Band of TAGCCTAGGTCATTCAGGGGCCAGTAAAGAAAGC ?
high band

Please classify: GATACAGGGTCAAGGACAGAGTACGCGTATTGAT
high band

Into which category would you place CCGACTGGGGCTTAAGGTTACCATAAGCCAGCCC ?
low band
